Target: Glucagon-like peptide 1 receptor (Homo sapiens, UniProt P43220)
Sequence (P43220 whole entry): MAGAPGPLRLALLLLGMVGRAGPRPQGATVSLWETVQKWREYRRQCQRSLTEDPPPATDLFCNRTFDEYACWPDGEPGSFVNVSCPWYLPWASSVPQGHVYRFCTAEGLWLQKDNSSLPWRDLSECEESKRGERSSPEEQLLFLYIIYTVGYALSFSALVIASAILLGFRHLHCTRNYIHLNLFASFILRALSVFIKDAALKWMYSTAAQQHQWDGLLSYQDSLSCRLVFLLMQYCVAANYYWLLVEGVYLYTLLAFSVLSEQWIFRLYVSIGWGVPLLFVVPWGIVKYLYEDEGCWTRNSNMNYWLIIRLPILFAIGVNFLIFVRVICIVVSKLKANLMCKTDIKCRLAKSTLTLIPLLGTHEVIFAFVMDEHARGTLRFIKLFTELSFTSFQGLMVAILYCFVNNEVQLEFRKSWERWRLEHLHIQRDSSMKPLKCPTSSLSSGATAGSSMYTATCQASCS
Experiment: Agonist activity at human GLP1 assessed as stimulation of cAMP
Assay type: functional
Label TRUE when EC50 < 2000 nM; otherwise FALSE.

[
  {
    "Molecule": "CCC(C)Nc1nc2cc(Cl)c(Cl)cc2nc1S(C)(=O)=O (stereo not drawn)",
    "Classification": "TRUE"
  }
]

Task: Hello, I'm reviewing records and need to know if EC50 of `CC(C)c1nc2cc(Cl)c(Cl)cc2nc1S(=O)(=O)CCC1OCCO1` is below 2000 nM. Could you check?
Result: FALSE

Task: Please check: EC50 for `CC(C)(C)Nc1nc2cc(Cl)c(Cl)cc2nc1S(C)(=O)=O` , strictly under 2000 nM or not?
Result: TRUE

Task: I'd appreciate it if you could check whether `CC(C)N(C)c1nc2cc(Cl)c(Cl)cc2nc1S(C)(=O)=O` has EC50 smaller than 2000 nM.
Result: TRUE

Task: Here's an entry: CS(=O)(=O)c1nc2cc(Cl)c(Cl)cc2nc1NC1CCCc2ccccc21 (stereo not drawn) . Is its EC50 below 2000 nM?
Result: TRUE

Task: Does `CN(C)c1nc2cc(Cl)c(Cl)cc2nc1S(C)(=O)=O` have EC50 strictly under 2000 nM?
Result: FALSE

Task: Please let me know if `CC(=O)NNc1nc2cc(Cl)c(Cl)cc2nc1S(C)(=O)=O` shows EC50 below 2000 nM.
Result: FALSE

Task: Criterion: EC50 strictly below 2000 nM. Is it met by `CC(C)Nc1nc2cc(Cl)c([N+](=O)[O-])c(C(F)(F)F)c2nc1S(C)(=O)=O` ?
Result: FALSE

Task: Quick check: does `CC(C)(C)Nc1nc2c(Cl)cc(C(F)(F)F)cc2nc1S(C)(=O)=O` have EC50 under 2000 nM?
Result: FALSE

Task: For this molecule, is EC50 lower than 2000 nM? `CS(=O)(=O)c1nc2cc(Cl)c(Cl)cc2nc1N1CCCC1`
Result: FALSE

Task: Dear colleague, could you confirm whether EC50 of CS(=O)(=O)c1nc2cc(Cl)c(Cl)cc2nc1NC1CCS(=O)(=O)C1 (stereo not drawn) falls below 2000 nM? Thanks.
Result: TRUE

Task: Regarding `CC(C)c1nc2cc(Cl)c(Cl)cc2nc1S(=O)(=O)Cc1ccc(S(C)(=O)=O)cc1` , kindly confirm whether its EC50 is beneath 2000 nM.
Result: TRUE

Task: Strictly below 2000 nM: is that where EC50 of `CC(=O)NCCNc1nc2cc(Cl)c(Cl)cc2nc1S(C)(=O)=O` sits?
Result: FALSE

Task: Identify whether the molecule `COC(=O)CCNS(=O)(=O)c1ccc(CS(=O)(=O)c2nc3cc(Cl)c(Cl)cc3nc2C(C)C)cc1` records EC50 below 2000 nM.
Result: FALSE

Task: Strictly below 2000 nM in EC50? `CC(C)Nc1nc2cc(Cl)c(Cl)cc2nc1S(C)(=O)=O`
Result: TRUE
